# Tested on: Escherichia coli
# runDescription: Minimum inhibitory concentration (MIC) against the cell line Escherichia coli juhl
# Assay type: functional
Reported MIC is given for each of the following molecules.

Some solved cases for reference:
CC(/C=C/C(O)=C1\C(=O)CNC1=O)=C\c1ccc2ccccc2c1 | > 100 µg/mL
CC(/C=C/C(O)=C1\C(=O)CNC1=O)=C\c1cccc2ccccc12 | 100 µg/mL
CC(/C=C/C(=O)C1=C(O)CN(C)C1=O)=C\c1cccc2ccccc12 | > 100 µg/mL

Quick one: MIC of CC(/C=C/C(=O)C1=C(O)CN(C)C1=O)=C\c1ccc2ccccc2c1 ?
200 µg/mL

###

# Tested on: Pseudomonas aeruginosa
# runDescription: Minimum inhibitory concentration (MIC) against the cell line Pseudomonas aeruginosa A5007
# Assay type: functional
outcomeMeasure: MIC (µg/mL)
The response must be a number in µg/mL with no trailing unit.

Some solved cases for reference:
CC(/C=C/C(O)=C1\C(=O)CNC1=O)=C\c1cccc2ccccc12 | 100
CC(/C=C/C(O)=C1\C(=O)CNC1=O)=C\c1ccc2ccccc2c1 | 100

Could you now consider this next compound?
Quick one: MIC of CC(/C=C/C(=O)C1=C(O)CN(C)C1=O)=C\c1ccc2ccccc2c1 ?
100

###

# assaySystem: DNA-directed RNA polymerase subunit beta (Escherichia coli K-12) (UniProt P0A8V2)
# Sequence (P0A8V2 whole entry, looked up): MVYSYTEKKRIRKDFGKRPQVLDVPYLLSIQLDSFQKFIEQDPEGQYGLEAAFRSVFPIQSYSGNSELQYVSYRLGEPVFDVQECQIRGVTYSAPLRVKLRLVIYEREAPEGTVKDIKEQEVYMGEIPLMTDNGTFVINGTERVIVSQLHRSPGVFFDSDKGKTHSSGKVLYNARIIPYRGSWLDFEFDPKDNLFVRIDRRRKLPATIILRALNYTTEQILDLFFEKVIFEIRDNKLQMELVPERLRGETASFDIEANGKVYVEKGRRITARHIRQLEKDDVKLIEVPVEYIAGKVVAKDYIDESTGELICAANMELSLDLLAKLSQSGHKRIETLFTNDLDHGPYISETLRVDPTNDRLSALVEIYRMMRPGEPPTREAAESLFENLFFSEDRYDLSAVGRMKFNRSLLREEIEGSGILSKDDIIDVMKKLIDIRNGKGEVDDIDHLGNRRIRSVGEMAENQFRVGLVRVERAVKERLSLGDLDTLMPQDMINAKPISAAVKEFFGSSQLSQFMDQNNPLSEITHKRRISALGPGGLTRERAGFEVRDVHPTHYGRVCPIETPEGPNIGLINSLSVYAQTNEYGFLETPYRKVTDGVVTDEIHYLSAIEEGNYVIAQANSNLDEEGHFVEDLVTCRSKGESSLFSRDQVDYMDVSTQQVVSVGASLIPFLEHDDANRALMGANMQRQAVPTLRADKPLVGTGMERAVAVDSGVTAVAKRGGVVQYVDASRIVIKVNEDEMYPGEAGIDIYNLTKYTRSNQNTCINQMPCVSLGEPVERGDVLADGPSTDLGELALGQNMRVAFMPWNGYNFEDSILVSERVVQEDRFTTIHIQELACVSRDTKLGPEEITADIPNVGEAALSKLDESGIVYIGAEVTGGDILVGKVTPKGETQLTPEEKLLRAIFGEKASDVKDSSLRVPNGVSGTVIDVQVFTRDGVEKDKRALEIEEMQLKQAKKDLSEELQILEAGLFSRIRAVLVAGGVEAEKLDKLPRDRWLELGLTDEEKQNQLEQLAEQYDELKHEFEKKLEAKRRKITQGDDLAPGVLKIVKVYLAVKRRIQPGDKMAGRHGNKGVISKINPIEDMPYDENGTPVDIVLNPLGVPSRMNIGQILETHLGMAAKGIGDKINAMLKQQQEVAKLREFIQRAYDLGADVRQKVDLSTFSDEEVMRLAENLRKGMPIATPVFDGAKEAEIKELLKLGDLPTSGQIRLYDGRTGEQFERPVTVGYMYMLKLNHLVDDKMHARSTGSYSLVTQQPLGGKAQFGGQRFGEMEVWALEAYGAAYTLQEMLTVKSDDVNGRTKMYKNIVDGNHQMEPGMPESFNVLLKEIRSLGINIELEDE
# runDescription: Percent inhibition at a concentration of 100 ug/mL of RNA polymerase isolated from Escherichia coli K12 (Sigma)
Reported inhibition is given for each of the following compounds.
The response must be a number in % with no trailing unit.

CO[C@H]1/C=C/O[C@@]2(C)Oc3c(C)c(O)c4c(O)c(c(/C=N/N5CCN(C)CC5)c(O)c4c3C2=O)NC(=O)/C(C)=C\C=C\[C@H](C)[C@H](O)[C@@H](C)[C@@H](O)[C@@H](C)[C@H](OC(C)=O)[C@@H]1C | 57

Quick one: inhibition of O=C(/C=C/C(Br)=C/c1ccccc1)C1=C(O)CNC1=O ?
7.3

Quick one: inhibition of O=C(/C=C/C(Cl)=C/c1ccccc1)C1=C(O)CNC1=O ?
3.2

Quick one: inhibition of CC(/C=C/C(=O)C1=C(O)CN(C)C1=O)=C\c1ccc2ccccc2c1 ?
12.3

Quick one: inhibition of CC(/C=C/C(O)=C1\C(=O)CNC1=O)=C\[C@@H](C)C1OC2(C)OC(C(=O)[C@@H]3O[C@@]32C)C1C (stereo partly drawn) ?
50

###

# Tested on: Bacteroides fragilis
# runDescription: Minimum inhibitory concentration against Bacteroides fragilis ATCC 25285
# Assay type: functional
Using MIC as the sorting value, the categories are interval 1 = under 8 µg/mL, interval 2 = from 8 µg/mL up to 60 µg/mL, interval 3 = 60 µg/mL and over

Worked cases, answers included:
CCC[C@@H]1C[C@@H](C(=O)N[C@@H]([C@H]2O[C@H](SC)[C@H](O)[C@@H](O)[C@H]2O)[C@H](C)Cl)N(C)C1 [CLINDAMYCIN] | interval 1
CC(/C=C/C(=O)C1=C(O)C(C)N(C)C1=O)=C\c1ccc2ccccc2c1 (centres undefined) | interval 3
CC(/C=C/C(=O)C1=C(O)CN(C)C1=O)=C\c1cnc2ccccc2c1 | interval 1
CC(/C=C/C(O)=C1\C(=O)CNC1=O)=C\c1cccc2ccccc12 | interval 1
CC(/C=C/C(O)=C1\C(=O)CN(C)C1=O)=C\C(C)C | interval 2

Category of O=C(/C=C/C=C/c1ccccc1)C1=C(O)CNC1=O , please.
interval 2

Category of CN1CC(O)=C(C(=O)/C=C/C=C/c2ccccc2[N+](=O)[O-])C1=O , please.
interval 3
